Data provenance is ChEMBL document CHEMBL1132429.

# Protocol Description: Partition coefficient (logD7.0)
# Assay type: physicochemical
# Experimental Parameters: octanol/water, pH 7
Metric Name: logD

(a) COC(=O)C(C)NP(=O)(OC[C@@H]1C=C[C@H](n2cc(C)c(=O)[nH]c2=O)O1)Oc1ccc(OC(F)(F)F)cc1 (stereo partly drawn)
(b) COC(=O)c1ccc(OP(=O)(NC(C)C(=O)OC)OC[C@@H]2C=C[C@H](n3cc(C)c(=O)[nH]c3=O)O2)cc1 (stereo partly drawn)
Higher logD between a and b ? Answer format: the label of the selected item.
a

----------
# Tested on: Human immunodeficiency virus 2
# Protocol Description: Concentration required to protect CEM/0 cells against the cytopathicity of HIV-2 by 50%
# Experimental Parameters: Human immunodeficiency virus 2, CCRF-CEM
pEC50: −log10 of the molar value.
Metric Name: pEC50

Previously resolved entries follow.
COC(=O)C(C)NP(=O)(OC[C@@H]1C=C[C@H](n2cc(C)c(=O)[nH]c2=O)O1)Oc1ccccc1Cl (stereo partly drawn) = 7.54
COC(=O)C(C)NP(=O)(OC[C@@H]1C=C[C@H](n2cc(C)c(=O)[nH]c2=O)O1)Oc1ccc(C(C)=O)cc1 (stereo partly drawn) = 7.00
COC(=O)C(C)NP(=O)(OC[C@@H]1C=C[C@H](n2cc(C)c(=O)[nH]c2=O)O1)Oc1ccc(OC)cc1 (stereo partly drawn) = 7.28
COC(=O)C(C)NP(=O)(OC[C@@H]1C=C[C@H](n2cc(C)c(=O)[nH]c2=O)O1)Oc1ccc(Cl)c(Cl)c1 (stereo partly drawn) = 7.52
COC(=O)C(C)NP(=O)(OC[C@@H]1C=C[C@H](n2cc(C)c(=O)[nH]c2=O)O1)Oc1ccc(C(F)(F)F)cc1 (stereo partly drawn) = 8.00

(a) COC(=O)C(C)NP(=O)(OC[C@@H]1C=C[C@H](n2cc(C)c(=O)[nH]c2=O)O1)Oc1ccc(F)cc1 (stereo partly drawn)
(b) COC(=O)C(C)NP(=O)(OC[C@@H]1C=C[C@H](n2cc(C)c(=O)[nH]c2=O)O1)Oc1ccc(I)cc1 (stereo partly drawn)
(c) COC(=O)C(C)NP(=O)(OC[C@@H]1C=C[C@H](n2cc(C)c(=O)[nH]c2=O)O1)Oc1ccc([N+](=O)[O-])cc1 (stereo partly drawn)
(d) Cc1cn([C@H]2C=C[C@@H](CO)O2)c(=O)[nH]c1=O
(e) COC(=O)C(C)NP(=O)(OC[C@@H]1C=C[C@H](n2cc(C)c(=O)[nH]c2=O)O1)Oc1cccc(F)c1 (stereo partly drawn)
Rank entries according to their pEC50, from the largest number down. Show the ranking through the labels, in the order asked for.
b, e, a, c, d

(1) COC(=O)C(C)NP(=O)(OC[C@@H]1C=C[C@H](n2cc(C)c(=O)[nH]c2=O)O1)Oc1cccc(C(F)(F)F)c1 (stereo partly drawn)
(2) COC(=O)c1ccc(OP(=O)(NC(C)C(=O)OC)OC[C@@H]2C=C[C@H](n3cc(C)c(=O)[nH]c3=O)O2)cc1 (stereo partly drawn)
Please tell me which of the two, 1 or 2 , has the higher reported pEC50 value. Answer by stating the label of the chosen item.
1

(I) COC(=O)C(C)NP(=O)(OC[C@@H]1C=C[C@H](n2cc(C)c(=O)[nH]c2=O)O1)Oc1ccc(C)cc1 (stereo partly drawn)
(II) COC(=O)C(C)NP(=O)(OC[C@@H]1C=C[C@H](n2cc(C)c(=O)[nH]c2=O)O1)Oc1ccc(OC(F)(F)F)cc1 (stereo partly drawn)
(III) COC(=O)C(C)NP(=O)(OC[C@@H]1C=C[C@H](n2cc(C)c(=O)[nH]c2=O)O1)Oc1cccc(C(C)=O)c1 (stereo partly drawn)
Which order do these items take when sorted by rising pEC50? List them. Ranked list of labels, please, in the requested order.
III, I, II
